Where these numbers come from: PubChem BioAssay (NCATS)

test: qHTS assay for small molecule disruptors of the mitochondrial membrane potential - 5 hr assay (AID 651755); conditions: JC-1-type ratio dye; series mostly up to 92.2 µM; further: nearly all actives have a fitted effect of over 40% in size
Results filed as inconclusive are left out. Calls of active or inactive are those of the source. The call rests on the fitted dose curve.
Hi! Could you answer with just one of these? class 1 (active), class 0 (inactive)

>  <COMPOUND>
Nc1c(Cl)cc([N+](=O)[O-])cc1Cl

>  <GROUP_LABEL>
class 1

$$$$
>  <COMPOUND>
ClCC(Br)CBr (stereo not given)

>  <GROUP_LABEL>
class 0

$$$$
>  <COMPOUND>
CCOC(=O)C1OC1(C)c1ccccc1 (stereo not given)

>  <GROUP_LABEL>
class 0

$$$$
>  <COMPOUND>
CCOP(=S)(OCC)Oc1nc(Cl)c(Cl)cc1Cl

>  <GROUP_LABEL>
class 0

$$$$
>  <COMPOUND>
CC(C)(COCC1CO1)COCC1CO1 (stereo not given)

>  <GROUP_LABEL>
class 0

$$$$
>  <COMPOUND>
CCCCNC(=O)n1c(NC(=O)OC)nc2ccccc21

>  <GROUP_LABEL>
class 0

$$$$
>  <COMPOUND>
CCCCOC(C)=O

>  <GROUP_LABEL>
class 0

$$$$
>  <COMPOUND>
c1ccc(Nc2ccc(Nc3ccccc3)cc2)cc1

>  <GROUP_LABEL>
class 1

$$$$
>  <COMPOUND>
CCCCC(=O)Cl

>  <GROUP_LABEL>
class 0

$$$$
>  <COMPOUND>
CN(C)c1ccc(N)cc1

>  <GROUP_LABEL>
class 1

$$$$

Prompt line: Which outcome was assigned to CCCC[N+](=O)[O-] in this test?
Response line: class 0

Prompt line: Could you please tell me the result logged for CCNCC in this assay?
Response line: class 0

Prompt line: In this assay, the call recorded for C=CC#N was what?
Response line: class 0

Prompt line: Please share the test call associated with COc1c(C(C)(C)C)cc([N+](=O)[O-])c(C)c1[N+](=O)[O-] .
Response line: class 0

Prompt line: Per the records of this test, what outcome belongs to COC(=O)Nc1cccc(OC(=O)Nc2cccc(C)c2)c1 ?
Response line: class 1

----------
Test: NFAT Signaling Pathway (AID 444);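 further: carbachol stimulus at about its EC50 of 1 µM final; on the % scale 0 is the no-effect control and ±100 the full control effect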
Conditions: Jurkat NFAT-bla M1, carbachol, beta-lactamase ratio, 5 h; at 7.69 µM (top of the series) unless noted
Description: NCGC Assay Overview: The nuclear factor of activated T cells (NFAT) family of transcription factors has been found primarily in most immune system cells and some other non-immune cells. NFAT plays the immunomodulatory role, primarily in T-cell activation and differentiation. […] NCGC Assay Protocol Summary: The cells were prepared in RPMI 1640 medium containing 0.1% dialyzed FBS and 25 mM HEPES at 1.6 x 10^6cell/ml. […] The %Activity was determined from the ratio of 460nm/530nm. […]
Inconclusive results are not listed. Activity calls are given as the source filed them. The call rests on the fitted dose curve; in most records, active means well fitted curve in either direction with a large enough effect (not every such curve was filed as active); inconclusive means small, poorly fitted or top-dose-only effect, or another doubt; inactive means flat fitted curve, though single readings scatter.
Provide the reported activity change, negative = inhibition of each item.

Look at each compound and report its activity change, negative = inhibition.
1. CC(=O)OCC1=C(C(=O)[O-])N2C(=O)[C@@H](NC(=O)CCC[C@@H](N)C(=O)[O-])[C@@H]2SC1.[Zn+2]
2. CCNCCC1(CC)C(=O)NC(=O)NC1=O
3. NCCc1c[nH]c2ccc(OC(=O)C(=O)O)cc12
4. N[C@@H](Cc1ccccc1)P(=O)(O)O

Response line:
1. 1.01% [at 38 µM] (inactive)
2. 11.4% (inactive)
3. 6.17% (inactive)
4. 12.4% (inactive)

Prompt line: Any idea what activity change, negative = inhibition was measured for Nc1ncnc2c1ncn2[C@@H]1O[C@@H](COP(=O)(O)CP(=O)(O)OP(=O)(O)O)[C@H](O)[C@@H]1O ?
Response line: 3.86% [at 38 µM] (inactive)

----------
Provide the reported activation of each item.
biological target: Glucocorticoid receptor (Homo sapiens) (UniProt P04150); test: qHTS assay for small molecule agonists of glucocorticoid receptor signaling (AID 588532); conditions: HeLa MMTV-bla, beta-lactamase ratio, agonist, 18 h; hits give high values; percent of dexamethasone control, DMSO zero;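 further: 100% = dexamethasone at 0.1 µM and 0% = DMSO only wells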
Sequence (P04150 whole entry, looked up): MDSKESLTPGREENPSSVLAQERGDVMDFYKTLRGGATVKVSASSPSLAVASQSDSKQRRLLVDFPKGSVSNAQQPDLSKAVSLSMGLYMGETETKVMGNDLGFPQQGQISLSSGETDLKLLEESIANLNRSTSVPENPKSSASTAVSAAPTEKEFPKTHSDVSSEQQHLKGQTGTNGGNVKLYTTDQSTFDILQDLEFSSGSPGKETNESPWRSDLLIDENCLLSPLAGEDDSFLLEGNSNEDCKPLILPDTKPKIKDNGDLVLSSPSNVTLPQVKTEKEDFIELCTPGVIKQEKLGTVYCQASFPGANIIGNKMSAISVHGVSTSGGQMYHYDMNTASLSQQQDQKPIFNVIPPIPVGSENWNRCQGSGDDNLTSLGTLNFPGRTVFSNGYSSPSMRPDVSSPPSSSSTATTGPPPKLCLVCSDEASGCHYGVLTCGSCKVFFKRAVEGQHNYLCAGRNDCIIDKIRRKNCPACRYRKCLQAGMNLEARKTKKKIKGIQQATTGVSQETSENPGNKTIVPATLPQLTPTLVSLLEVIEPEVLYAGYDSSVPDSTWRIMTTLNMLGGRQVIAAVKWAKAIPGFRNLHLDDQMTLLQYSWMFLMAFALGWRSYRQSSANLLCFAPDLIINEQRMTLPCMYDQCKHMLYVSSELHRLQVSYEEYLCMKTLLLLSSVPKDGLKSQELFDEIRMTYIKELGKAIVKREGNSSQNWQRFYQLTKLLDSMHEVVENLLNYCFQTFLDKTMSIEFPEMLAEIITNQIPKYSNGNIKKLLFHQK
Results filed as inconclusive are left out.
Give bare numbers, in %.

Example entries and their recorded answers appear below.
>  <COMPOUND>
CCC/C=N/O

>  <UNITS>
%

>  <EXPERIMENTAL_VALUE>
5.99

$$$$
>  <COMPOUND>
O=[N+]([O-])c1cccc(CCl)c1

>  <UNITS>
%

>  <EXPERIMENTAL_VALUE>
5.78

$$$$
>  <COMPOUND>
Cc1ccccc1[N+](=O)[O-]

>  <UNITS>
%

>  <EXPERIMENTAL_VALUE>
-7.47

$$$$
>  <COMPOUND>
ClC(Cl)C(Cl)Cl

>  <UNITS>
%

>  <EXPERIMENTAL_VALUE>
1.52

$$$$
>  <COMPOUND>
OCCCCO

>  <UNITS>
%

>  <EXPERIMENTAL_VALUE>
-5.33

$$$$
>  <COMPOUND>
Cc1cc(C)cc(OP(=O)(Oc2cc(C)cc(C)c2)Oc2cc(C)cc(C)c2)c1

>  <UNITS>
%

>  <EXPERIMENTAL_VALUE>
-3.84

$$$$
>  <COMPOUND>
ClC=CCl

>  <UNITS>
%

>  <EXPERIMENTAL_VALUE>
-2.58

$$$$
>  <COMPOUND>
C=CC=O

>  <UNITS>
%

>  <EXPERIMENTAL_VALUE>
-2.21

$$$$

Hi! Can you tell me activation for each of these compounds?
1. Cc1ccc(N)c(C)c1
2. OCCBr
3. ClC(Cl)Br
4. O=[N+]([O-])c1cc(Cl)c(Cl)cc1Cl
5. ClC(Cl)c1ccccc1
6. O=C(Cl)OCc1ccccc1
7. Nc1ccccc1-c1ccccc1

Response line:
1. -0.661
2. -2.73
3. -5.41
4. -2.16
5. -0.105
6. -1.41
7. -2.58

List activation for every entry below, keeping the order given.
1. O=[N+]([O-])c1ccccc1O
2. O=C(O)C(Br)CBr (configuration not stated)

Response line:
[0.494, -2.23]

----------
assay: Cell Viability - LYMP2-009 (AID 968); details: LYMP2-009 lymphoblastoid cell viability; series mostly up to 92.2 µM;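 further: cells exposed to compound for 24 h at 37 °C; 0% = DMSO alone and the full-kill end = tetraoctylammonium bromide at 92 µM; nearly all actives have a fitted effect of over 55% in size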
Results filed as inconclusive are left out. Calls of active or inactive are those of the source. Calls follow the shape of the dose curve; as a rule, active = well fitted cell-killing curve with a large enough effect; inconclusive = small, poorly fitted or top-dose-only effect; inactive = flat fitted curve, though single readings scatter.
ASSAY_READOUT: outcome

See these solved cases before continuing.
>  <MOLECULE>
c1ccc(NNc2ccccc2)cc1

>  <ASSAY_READOUT>
outcome

>  <EXPERIMENTAL_VALUE>
inactive

$$$$
>  <MOLECULE>
CCCCCCCCCCCOC(=O)c1ccccc1C(=O)OCCCCCCCCCCC

>  <ASSAY_READOUT>
outcome

>  <EXPERIMENTAL_VALUE>
inactive

$$$$
>  <MOLECULE>
O=C(O)c1cc(Cl)ccc1Cl

>  <ASSAY_READOUT>
outcome

>  <EXPERIMENTAL_VALUE>
inactive

$$$$
>  <MOLECULE>
CSSC

>  <ASSAY_READOUT>
outcome

>  <EXPERIMENTAL_VALUE>
inactive

$$$$
>  <MOLECULE>
Nn1cnnc1

>  <ASSAY_READOUT>
outcome

>  <EXPERIMENTAL_VALUE>
inactive

$$$$
>  <MOLECULE>
C(CCOCC1CO1)COCC1CO1 (centres undefined)

>  <ASSAY_READOUT>
outcome

>  <EXPERIMENTAL_VALUE>
inactive

$$$$
>  <MOLECULE>
Oc1cc(Cl)ccc1Cl

>  <ASSAY_READOUT>
outcome

>  <EXPERIMENTAL_VALUE>
inactive

$$$$
>  <MOLECULE>
OCCCCO

>  <ASSAY_READOUT>
outcome

>  <EXPERIMENTAL_VALUE>
inactive

$$$$

Attention now shifts to the item below.
Prompt line: Looking for the measured outcome of C=CC#N , can you help?
Response line: inactive

----------
molecular target: Nuclear receptor subfamily 1 group I member 2 (Rattus norvegicus); assay: qHTS assay for small molecule activators of the rat pregnane X receptor (rPXR) signaling pathway (AID 651751); settings: rPXR reporter cells, luciferase (One-Glo), 24 h; further: 0% is about no effect
ASSAY_READOUT: max response (%)
Give bare numbers, in %.

Worked cases, max response given:
>  <SMILES_INPUT>
CCCCCc1cc(O)cc(O)c1

>  <EXPERIMENTAL_VALUE>
-1.86

$$$$
>  <SMILES_INPUT>
ClCCBr

>  <EXPERIMENTAL_VALUE>
-0.231

$$$$
>  <SMILES_INPUT>
Nn1cnnc1

>  <EXPERIMENTAL_VALUE>
2.65

$$$$
>  <SMILES_INPUT>
N#CCCCCC#N

>  <EXPERIMENTAL_VALUE>
9.56

$$$$

Could I get max response for every one of these entries?
1. COc1c(C(C)(C)C)cc([N+](=O)[O-])c(C)c1[N+](=O)[O-]
2. Clc1ccc(C(Cl)(Cl)Cl)cc1Cl

Response line:
1. 5.88
2. 3.68

For the 2 molecules below, give their max response values.
1. Oc1cc(Cl)cc(Cl)c1
2. CCCCCCCCCCCOC(=O)c1ccccc1C(=O)OCCCCCCCCCCC

Response line:
[0.776, 1.44]

Hey, quick one: what's max response for each of these?
1. CN(C)C(=O)Cl
2. O=C(O)C(Br)Br
3. Oc1c(Cl)cccc1Cl
4. S=c1[nH]c2ccccc2[nH]1
5. CC(=O)CCC(C)=O
6. Cc1ccc2c(C)cccc2c1
7. CN=C=O
8. N#CCBr

Response line:
1: -2.26; 2: 1.77; 3: 5.06; 4: -7.5; 5: -1.31; 6: -3.71; 7: 8.83; 8: -1.93

Prompt line: I am curious: what max response value has been reported for C=COC(C)=O ?
Response line: 2.31
